test system: Coxsackievirus B3; assay: Antiviral activity against Coxsackievirus B3 infected in African green monkey Vero cells assessed as inhibition of virus-induced cytopathic effect; assay type: functional, organism-based; conditions: Enterovirus B
Reported IC50 values follow for various compounds
measurement kind: IC50

COC(=O)CC1=CC[C@H]2[C@H](C[C@@H]1C)OC(=O)[C@H]2C | > 35 µM
C=C1C(=O)O[C@@H]2C=C(CCC(C)=O)[C@@H](C)CC[C@@H]12 | 6.4 µM
C[C@H]1C[C@@H]2OC(=O)[C@H](C)[C@H]2CC=C1C(=O)O | > 35 µM
C[C@H]1C[C@@H]2OC(=O)[C@H](C)[C@H]2CC=C1C=O | > 35 µM
CCOC(=O)/C=C/c1ccc(O)c(O)c1 [ETHYL CAFFEATE] | > 35 µM
COc1cc(C(O)C(CO)Oc2ccc(C(=O)O)cc2OC)ccc1O (stereo unspecified) | > 35 µM
CC(=O)CCC1=CC[C@H]2[C@H](C[C@@H]1C)OC(=O)[C@@H]2C | 6.4 µM
Cc1cc(CCCOc2c(C)cc(-c3noc(C(F)(F)F)n3)cc2C)on1 | 0.0025 µM
C=C1C(=O)O[C@H]2C[C@H](C)C(CCC(C)=O)=CC[C@H]12 | > 35 µM
C=C1CC=C[C@]2(C)C[C@]3(O)OC(=O)C(C)C3=C[C@@H]12 (stereo partly specified) [HYDROXYLINDESTENOLIDE] | > 35 µM
C=C1C(=O)O[C@H]2C[C@H](C)C(C=O)=CC[C@H]12 | 19.2 µM
